- Tested on: Candida albicans
- test: Antifungal activity against Candida albicans MTCC 227 assessed as growth inhibition after 24 hr by agar well diffusion method
- Assay type: functional
- condition info: MTCC 227, 24 h
# key: entry, value: MIC
endpoint name: MIC (µg/mL)

>  <structure smiles string>
NS(=O)(=O)c1ccc(-n2nc(-c3ccc(Cl)cc3)c3c(C(F)(F)F)cc(C(F)(F)F)nc32)cc1

>  <endpoint name>
MIC

>  <comparison sign>
=

>  <obs value>
64

$$$$
>  <structure smiles string>
Cc1cc(C(F)(F)F)c2c(-c3ccccc3)nn(-c3ccc(S(N)(=O)=O)cc3)c2n1

>  <endpoint name>
MIC

>  <comparison sign>
=

>  <obs value>
64

$$$$
>  <structure smiles string>
COc1ccc(-c2cc(C(F)(F)F)c3c(-c4ccccc4)nn(-c4ccc(S(N)(=O)=O)cc4)c3n2)cc1

>  <endpoint name>
MIC

>  <comparison sign>
=

>  <obs value>
128

$$$$
>  <structure smiles string>
NS(=O)(=O)c1ccc(-n2nc(-c3ccccc3)c3c(C(F)(F)F)cc(-c4ccc(Br)cc4)nc32)cc1

>  <endpoint name>
MIC

>  <comparison sign>
>

>  <obs value>
256

$$$$

FYI, the data here is from ChEMBL document CHEMBL3045429.
